Test system: HT-29 cells
Settings: read-out: HT29 (EC50 Ave) SA; HT29, SA (soft agar)
EC50 overview

INSERT INTO assay_data (compound, meas_value) VALUES
  ('CC[C@]1(O)C[C@@H]2CN(CCc3c([nH]c4ccccc34)[C@@](C(=O)OC)(c3cc4c(cc3OC)N(C)[C@H]3[C@@](O)(C(=O)NCCCCCCN)[C@H](O)[C@]5(CC)C=CCN6CC[C@]43[C@@H]65)C2)C1 [VBL-3Am-ALK(6)-NH2]', '< 20 nM'),
  ('CC(=O)O[C@@]12CO[C@@H]1C[C@H](O)[C@@]1(C)C(=O)[C@H](OC(=O)CCCCCCNC(=O)OCc3ccccc3)C3=C(C)[C@@H](OC(=O)[C@H](O)[C@@H](NC(=O)c4ccccc4)c4ccccc4)C[C@@](O)([C@@H](OC(=O)c4ccccc4)[C@H]21)C3(C)C [PXL-10Es-Alk(6)-NH(Z)]', '< 20 nM'),
  ('CC[C@]1(O)C[C@@H]2CN(CCc3c([nH]c4ccccc34)[C@@](C(=O)OC)(c3cc4c(cc3OC)N(C)[C@H]3[C@@](O)(C(=O)NCCCCCCNC(=O)OC(C)(C)C)[C@H](O)[C@]5(CC)C=CCN6CC[C@]43[C@@H]65)C2)C1 [VBL-3Am-ALK(6)-NH(B)]', '< 20 nM'),
  ('CC[C@]1(O)CC2CN(CCc3c([nH]c4ccccc34)[C@@](C(=O)OC)(c3cc4c(cc3OC)N(C)[C@H]3C(O)(C(=O)NCCOCCOCCOCCN)[C@H](O)[C@]5(CC)C=CCN6CCC43[C@@H]65)C2)C1 (some centres unmarked) [VBL-3Am-PEG(11)-NH2]', '< 20 nM');

// field: EC50; key: `CC[C@H](C)[C@H](NC(=O)[C@H](Cc1ccc(O)cc1)NC(=O)[C@H](CCC(=O)O)NC(C)=O)C(=O)N[C@@H](Cc1ccc(O)cc1)C(=O)NCC(=O)N[C@@H](CO)C(=O)N[C@@H](Cc1ccccc1)C(=O)N[C@@H](CCCCN)C(=O)NCCCOCCOCCOCCCNC(=O)O[C@H]1C(=O)[C@@]2(C)[C@H]([C@H](OC(=O)c3ccccc3)[C@]3(O)C[C@H](OC(=O)[C@H](O)[C@@H](NC(=O)c4ccccc4)c4ccccc4)C(C)=C1C3(C)C)[C@]1(OC(C)=O)CO[C@@H]1C[C@@H]2O` ; value = > 100 nM

###

Biological target: Human Src (Homo sapiens, UniProt P12931)
Construct: purchased Upstate (Charlottesville, Va.) 14-326
Experiment: Src kinase assay (PKLight ATP utilization, substrate phosphorylation as % of parent peptide)
Format: biochemical
Procedure: Another test may involve monitoring the consumption of ATP. For example, ATP concentrations at time 0 or after 4 hour incubation may be monitored by luciferase reaction (PKLight kit obtained from Cambrex Corporation, One Meadowlands Plaza, East Rutherford, N.J. 07073), which generate a luminescence readout in the presence of ATP. […] After 4 hour of incubation at 30° C., PKLight reagent is added and mixed well, and luminescence readout measured. […]
Primed or numbered codes have the meaning given here. * marks the point of attachment. ALK(6) = not defined here; PEG(11) = PEG(11) linker; 10Es = not defined here; 3Am = not defined here; Cbz = O=C(OCc1ccccc1)*; Boc = CC(C)(C)OC(=O)*; VBL = vinblastine; PXL = paclitaxel
MEASURED_ENDPOINT: Average src kinase activity

Examples with answers:
INSERT INTO results (substance, test_system, measured_endpoint, meas_value) VALUES
  ('Ac-YIFGSFK-PEG(11)-3Am-VBL (N-acetyl; PEG(11) linker; vinblastine conjugate)', 'Human Src (Homo sapiens, UniProt P12931)', 'Average src kinase activity', 'C (C>40)'),
  ('BOC-GIYWHHY-PEG(29)-3Am-VBL (N-BOC; PEG(29) linker; vinblastine conjugate)', 'Human Src (Homo sapiens, UniProt P12931)', 'Average src kinase activity', 'A (A<20)'),
  ('CBz-YIYGSFK(CBz)-PEG(11)-3Am-VBL (Cbz-YIYGSFK(Cbz)-{PEG(11)-3Am-VBL}; reading uncertain; also: printed as CBz-YIYGSFK(CBz)-PEG(11)-3Am-VBL)', 'Human Src (Homo sapiens, UniProt P12931)', 'Average src kinase activity', 'A (A<20)'),
  ('H-YIYGSFK-ALK(6)-10Es-PXL (H-YIYGSFK-{ALK(6)-10Es-PXL}; reading uncertain)', 'Human Src (Homo sapiens, UniProt P12931)', 'Average src kinase activity', 'C (C>40)'),
  ('CBz-E(Bzl)YIFGSFK-PEG(11)-3Am-VBL (CBz-Glu(Bzl) N-terminal; PEG(11); vinblastine conjugate)', 'Human Src (Homo sapiens, UniProt P12931)', 'Average src kinase activity', 'C (C>40)');

Next up:
Entry under test: CBz-YIYGSFK(BOC)-PEG(11)-3Am-VBL (Cbz-YIYGSFK(Boc)-{PEG(11)-3Am-VBL}; reading uncertain; also: printed as CBz-YIYGSFK(BOC)-PEG(11)-3Am-VBL) . Its Average src kinase activity was A (A<20)

###

Biological target: Human Src (Homo sapiens, UniProt P12931)
Construct: purchased Upstate (Charlottesville, Va.) 14-326
Assay: Src kinase assay (PKLight ATP utilization, substrate phosphorylation as % of parent peptide)
Type: biochemical
Primed or numbered codes have the meaning given here. * marks the point of attachment. ALK(6) = not defined here; 10Es = not defined here; PEG(11)″ = PEG11 linker; 3Am = not defined here; Cbz = O=C(OCc1ccccc1)*; Boc = CC(C)(C)OC(=O)*; VBL = vinblastine; PXL = paclitaxel
MEASURED_ENDPOINT: Average src kinase activity

INSERT INTO measurements (substance, meas_value) VALUES
  ('Ac-YIFGSFK(BOC)-PEG(11)-3Am-VBL (Ac-YIFGSFK(Boc)-{PEG(11)″-3Am-VBL}; reading uncertain; also: printed as Ac-YIFGSFK(BOC)-PEG(11)-3Am-VBL)', 'B (B=20-40)'),
  ('Ac-EYIYGSFR-PEG(13)-10Ca-PXL (N-acetyl, PEG13, paclitaxel conjugate)', 'B (B=20-40)'),
  ('Ac-EYIFGSFK-PEG(13)-10Ca-PXL (N-acetyl, PEG13, paclitaxel conjugate)', 'Zero'),
  ('CBz-YIYGSFK(CBz)-ALK(6)-10Es-PXL (Cbz-YIYGSFK(Cbz)-{ALK(6)-10Es-PXL}; reading uncertain; also: printed as CBz-YIYGSFK(CBz)-ALK(6)-10Es-PXL)', 'Zero');

###

Molecular target: Human Src (Homo sapiens, UniProt P12931)
Construct: purchased Upstate (Charlottesville, Va.) 14-326
Experiment: Src kinase assay (PKLight ATP utilization, substrate phosphorylation as % of parent peptide)
Format: biochemical
Primed or numbered codes have the meaning given here. PEG(11) = PEG(11) linker; 3Am = not defined here; VBL = vinblastine
MEASURED_ENDPOINT: Average src kinase activity

Example entries and their recorded answers appear below.
INSERT INTO measurements (substance, test_system, measured_endpoint, meas_value) VALUES
  ('H-YIYGSFK-PEG(11)-3Am-VBL (H-YIYGSFK-{PEG(11)-3Am-VBL}; reading uncertain)', 'Human Src (Homo sapiens, UniProt P12931)', 'Average src kinase activity', 'C (C>40)'),
  ('BOC-E(Bzl)YIFGSFK(BOC)-PEG(11)-3Am-VBL', 'Human Src (Homo sapiens, UniProt P12931)', 'Average src kinase activity', 'A (A<20)'),
  ('CBz-E(Bzl)YIFGSFK(BOC)-PEG(11)-3Am-VBL', 'Human Src (Homo sapiens, UniProt P12931)', 'Average src kinase activity', 'A (A<20)'),
  ('CBz-GIYWHHY-PEG(11)-3Am-VBL (N-CBz; PEG(11) linker; vinblastine conjugate)', 'Human Src (Homo sapiens, UniProt P12931)', 'Average src kinase activity', 'A (A<20)'),
  ('Ac-YIYGSFS-PEG(11)-3Am-VBL (N-acetyl; PEG(11) linker; vinblastine conjugate)', 'Human Src (Homo sapiens, UniProt P12931)', 'Average src kinase activity', 'C (C>40)');

Summary for this substance, Ac-YIYGSFR-PEG(11)-3Am-VBL (N-acetyl; PEG(11) linker; vinblastine conjugate) : Average src kinase activity is C (C>40)

The substance listed as CBz-YIFGSFK-PEG(11)-3Am-VBL (N-CBz; PEG(11) linker; vinblastine conjugate) has a reported Average src kinase activity of A (A<20)

###

Target: Human Src (Homo sapiens, UniProt P12931)
Construct: purchased Upstate (Charlottesville, Va.) 14-326
Assay: Src kinase assay (PKLight ATP utilization, substrate phosphorylation as % of parent peptide)
Format: biochemical
Experimental: Another test may involve monitoring the consumption of ATP. For example, ATP concentrations at time 0 or after 4 hour incubation may be monitored by luciferase reaction (PKLight kit obtained from Cambrex Corporation, One Meadowlands Plaza, East Rutherford, N.J. 07073), which generate a luminescence readout in the presence of ATP. […] After 4 hour of incubation at 30° C., PKLight reagent is added and mixed well, and luminescence readout measured. […]
Primed or numbered codes have the meaning given here. * marks the point of attachment. 3Am‑VBL = vinblastine (VBL) conjugate; PEG(11) = PEG(11) linker; 3Am = not defined here; Boc = CC(C)(C)OC(=O)*; Piv = CC(C)(C)C(=O)*; VBL = vinblastine
MEASURED_ENDPOINT: Average src kinase activity

INSERT INTO measurements (substance, measured_endpoint, meas_value) VALUES
  ('Ac-YIYGSFR-PEG(13)-10Ca-PXL (N-acetyl; PEG(13) linker; paclitaxel conjugate)', 'Average src kinase activity', 'C (C>40)'),
  ('BOC-EYIYGSFK(BOC)-PEG(11)-3Am-VBL (N-BOC; BOC side chain; PEG(11); vinblastine conjugate)', 'Average src kinase activity', 'B (B=20-40)'),
  ('CH3O(CH2CH2O)3CH2CH2(C═O)YIYGSFS-PEG(11)-3Am-VBL (N-methoxy-PEG acyl; PEG(11); vinblastine conjugate)', 'Average src kinase activity', 'C (C>40)'),
  ('BOC-YI(phospho)YGSFK(BOC)-PEG(11)-3Am-VBL (Boc-YIYGSFK(Boc)-{PEG(11)-3Am-VBL}; reading uncertain; also: phospho at I2 as written: I(phospho), printed as BOC-YI(phospho)YGSFK(BOC)-PEG(11)-3Am-VBL)', 'Average src kinase activity', 'C (C>40)'),
  ('Ac-YIYGSFH-PEG(11)-3Am-VBL (N-acetyl; PEG(11) linker; vinblastine conjugate)', 'Average src kinase activity', 'C (C>40)');

The record that follows has no Average src kinase activity shown yet.
Lab note: Pv-YIYGSFR-PEG(11)-3Am-VBL (Piv-YIYGSFR-{PEG(11)-3Am‑VBL}) gave Average src kinase activity of B (B=20-40)
